These measurements were taken from PubChem BioAssay AID1851.

Molecular target: Cytochrome P450 1A2 (Homo sapiens)
Test: Cytochrome panel assay with activity outcomes
Conditions: recombinant CYP, pro-luciferin dealkylation, luminescence, p450-cyp1a2; series mostly up to 57.1 µM
Hit rate of the full screen: of about 16,000 compounds, about 5,700 (36%) were called active. Not shown: some 24% with an inconclusive outcome. Calls come from the whole dose curve; as a rule, active = well fitted curve in the direction sought with a large enough effect; inconclusive = small, poorly fitted or top-dose-only effect, or effect the other way; inactive = no such curve, though single readings can be large or run the other way. Some of the results follow.
Outcome codes: 1.0 = active, 0.0 = inactive

| molecule | class.name |
| --- | --- |
| O=C(Nc1nccs1)C1Cc2ccccc2CN1S(=O)(=O)c1ccc(F)cc1 (centres undefined) | 1.0 |
| Cc1noc(C)c1-c1nc(NCCN2CCOCC2)c2ccccc2n1 | 1.0 |
| C=CCCC(=O)Nc1nc(C)c(-c2csc(Nc3ccc(Cl)cc3)n2)s1 | 1.0 |
| N#Cc1cccc(-c2ccc3ncnc(NC4CCNCC4)c3c2)c1 | 1.0 |
| Cc1ccc(NC(=O)c2cc([N+](=O)[O-])ccc2NCc2cccnc2)cc1Cl | 1.0 |
| O=S(=O)(c1ccccc1)N1CCC2(CC1)CN(Cc1ccccc1)C2 | 0.0 |
| Nc1ccc(S(=O)(=O)Nc2nccs2)cc1 | 0.0 |
| COc1cccc(-c2cncnc2NCc2cccs2)c1 | 1.0 |
| Cc1nc(/N=C(\N)Nc2ccccc2)nc2ccccc12 | 1.0 |
| COc1ccc2c(c1[N+](=O)[O-])CCC/C2=N/OC(=O)c1cccc2ccccc12 | 1.0 |
| COc1ccccc1C(=O)O/N=C1/CCCc2c1ccc(OC)c2[N+](=O)[O-] | 1.0 |
| Cc1nc(NC(=O)c2ccccc2)sc1-c1csc(Nc2cccc(F)c2)n1 | 1.0 |
| Cc1ccc(C)c(S(=O)(=O)NCc2ccc(C(=O)N3CCC(Cc4ccccc4)CC3)cc2)c1 | 0.0 |
| Cc1ccc2c(c1)N[C@H](c1ccc(C(=O)O)cc1)c1cccn1-2 | 1.0 |
| COc1cccc(-c2cncnc2NCc2cccc(C)c2)c1 | 1.0 |
| O=C(CSc1ccc(Cl)cc1)Nc1ccc(N2CCN(c3ccccc3)CC2)c(F)c1 | 0.0 |
| CC(C)Oc1ccc2ccccc2c1C=O | 1.0 |
| Cc1cccc(N/C(N)=N/c2nc(C)cc(C)n2)c1 | 1.0 |
| CCOC(=O)c1[nH]c2cc(OC)c(OC)cc2c1NC(=O)c1nonc1C | 1.0 |
| COc1ccc(CN2C(=O)c3ccccc3C(/C=N\OCc3ccc(F)cc3)C2=O)cc1 (centres undefined) | 1.0 |
| COCCNc1nc(-c2c(C)noc2C)nc2ccccc12 | 1.0 |
| CS(=O)(=O)Nc1cccc(-c2cncnc2-n2ccnc2)c1 | 1.0 |
| CC(C)=CCc1c(C)nc2ccccc2c1C(=O)O | 0.0 |
| COc1ccc(NS(=O)(=O)c2ccc(I)cc2)cc1N1CCN(C)CC1 | 0.0 |
| COc1ccc(C(C(=O)NC2CCCC2)N(C(=O)c2snc(-c3ccc(F)cc3)c2N)c2ccc(F)cc2)cc1 (centres undefined) | 0.0 |
| CO/N=C(\C(=O)N[C@@H]1C(=O)N2C(C(=O)O)=C(COC(C)=O)CS[C@@H]12)c1csc(N)n1 | 0.0 |
| NCCCCCc1nnc(SCc2ccc(Cl)cc2Cl)o1 | 1.0 |
| CS(=O)(=O)Nc1ccc(C(=O)N2CCN(c3ccccc3)CC2)cc1 | 0.0 |
| COc1cc(C(=O)OCC(=O)Nc2cc(C)on2)cc(OC)c1OC | 0.0 |
| Cc1nc(NC(=O)c2ccccc2)sc1-c1csc(Nc2ccc(Cl)cc2Cl)n1 | 0.0 |
| CCCC1S/C(=N/N=C/c2ccc(OC)cc2)N(Cc2ccc(OC)cc2)C1=O (centres undefined) | 0.0 |
| O=C(Nc1ccc(F)cc1)c1ccc(-n2ccnc2)nc1 | 1.0 |
| Cn1ncc(Cl)c1C(=O)Nc1cccnc1 | 1.0 |
| CCOC(=O)c1[nH]c2cc(OC)c(OC)cc2c1NC(=O)c1ccc2c(c1)OCO2 | 1.0 |
| CCOC(=O)C1=C(C)Nc2ncnn2C1c1cccnc1 (centres undefined) | 0.0 |
| c1ccc(-n2ncc3c(NCCCN4CCOCC4)ncnc32)cc1 | 0.0 |
| O=C(c1c(O)c2ccc(Cl)cc2[nH]c1=O)C1CC1 | 1.0 |
| c1cncc(-c2ccc3ncnc(NC4CCNCC4)c3c2)c1 | 1.0 |
| CN1CCN(c2ccnc(-c3cccc(NS(C)(=O)=O)c3)n2)CC1 | 1.0 |

----------
Target: Cytochrome P450 1A2 (Homo sapiens)
Assay: Cytochrome panel assay with activity outcomes
Conditions: recombinant CYP, pro-luciferin dealkylation, luminescence, p450-cyp1a2; series mostly up to 57.1 µM
Out of some 16,000 compounds screened, about 5,700 (36%) were called active. Roughly 24% stayed inconclusive and do not appear here. The list shows a part of the results.

| molecule | AC50 |
| --- | --- |
| CC(C)Cc1nnc(NC(=O)c2ccc([N+](=O)[O-])cc2)s1 | inactive |
| FC(F)(F)c1ccccc1-c1nc(NCCN2CCOCC2)c2ccccc2n1 | 12.6 µM (active) |
| O=C(NC1CCCc2ccccc21)C1CCN(S(=O)(=O)N2CCCCCC2)CC1 (centres undefined) | inactive |
| CC(=O)N=c1sccn1CC(=O)c1ccc([N+](=O)[O-])cc1 | 22.4 µM (active) |
| C=CCOc1cccc(/C=N/NC(=O)C(=O)NCc2ccco2)c1 | inactive |
| O=C1C=C(NCCN2CCOCC2)CC(c2ccccc2)C1 (centres undefined) | inactive |
| COc1cc(/C=C/C(=O)N2CCN(CC(O)COc3ccccc3)CC2)cc(OC)c1OC (centres undefined) | inactive |
| Cc1cc(NC(=O)c2cccc(F)c2)no1 | 17.8 µM (active) |
| c1ccc(NN(Cc2cnccn2)c2ccccc2)cc1 | 2 µM (active) |
| CC1CCCC(C)N1C(=O)c1cc(-c2ccc(Cl)c(Cl)c2)on1 (centres undefined) | 5.01 µM (active) |
| N#Cc1cccc(-c2nc(NCCN3CCOCC3)c3ccccc3n2)c1 | 1 µM (active) |
| CCC(=O)NCc1c(Cl)cccc1-n1cccc1 | 14.1 µM (active) |
| O=[N+]([O-])/C=C\c1cc2ccccc2[nH]1 | 1.26 µM (active) |
| O=c1c2ccccc2nnn1CSc1nnc(COc2ccc(Cl)cc2)n1Cc1ccco1 | 3.16 µM (active) |
| O=C(c1ccco1)N1CCC2(CCN(Cc3nccs3)CC2)CC1 | inactive |
| COc1cc(/C=C/C(=O)O)cc(S(=O)(=O)NCCCO)c1OC | inactive |
| Cc1cc2ccccc2n1CCNC(=O)c1ccccc1 | 4.47 µM (active) |
| Clc1ccccc1-c1nc(NCCN2CCOCC2)c2ccccc2n1 | 12.6 µM (active) |
| Cc1cc(NC(=O)CN2C(=O)NC(C)(c3ccc(OC(F)F)cc3)C2=O)no1 (centres undefined) | inactive |
| Cc1cc(=O)oc(C)c1C(=O)Nc1ccc(Cl)cn1 | inactive |
| C/C(=N\NC(=O)c1cccc(F)c1)c1ccc(Br)s1 | 0.631 µM (active) |
| C[C@@H]1CCC[C@H](C)N1NC(=O)c1ccc(Cl)c(S(N)(=O)=O)c1 | inactive |
| COc1ccc(CCNC(=O)C2CCN(S(=O)(=O)N3CC(C)CC(C)C3)CC2)cc1OC (centres undefined) | inactive |
| CC(C)CN(CC(C)C)C1=N/C(=C\c2ccco2)C(=O)N1c1ccccc1 | inactive |

----------
Target: Cytochrome P450 1A2 (Homo sapiens)
Test: Cytochrome panel assay with activity outcomes
Conditions: recombinant CYP, pro-luciferin dealkylation, luminescence, p450-cyp1a2; series mostly up to 57.1 µM
Among all 16,000 compounds or so, about 5,700 (36%) were called active. Another 24% or so got no clear call; they are omitted. This is one part of the list.
quantity.kind: AC50

| given.smiles | val |
| --- | --- |
| O=C(CCN1C(=O)c2ccccc2C1=O)NC(=S)Nc1cccc(Cl)c1 | 3.16 µM (active) |
| CCCc1ccc(-c2cc(C(=O)NN3CCOCC3)c3ccccc3n2)cc1 | inactive |
| O=C(c1ccc(N2CCCCC2)c([N+](=O)[O-])c1)N(Cc1ccccc1)c1ccccn1 | 14.1 µM (active) |
| COc1ccc(NC(=O)N2CC3(CCN(C(C)=O)CC3)C2)cc1 | inactive |
| Cc1ccc(-c2cc(C(=O)NN=C3CCCC3)c3ccccc3n2)cc1 | 15.8 µM (active) |

----------
Molecular target: Cytochrome P450 1A2 (Homo sapiens)
Experiment: Cytochrome panel assay with activity outcomes
Settings: recombinant CYP, pro-luciferin dealkylation, luminescence, p450-cyp1a2; series mostly up to 57.1 µM
The whole screen tested about 16,000 compounds, of which about 5,700 (36%) were called active. Inconclusive results (about 24%) are left out. Calls follow the shape of the dose curve; as a rule, active = well fitted curve in the direction sought with a large enough effect; inconclusive = small, poorly fitted or top-dose-only effect, or effect the other way; inactive = no such curve, though single readings can be large or run the other way. This is one part of the list.
Labels: True (active), False (inactive)

| given.smiles | class.name |
| --- | --- |
| COc1ccc(NC(=O)CN2c3cccc4cccc(c34)S2(=O)=O)cc1 | True |
| COc1cc(C(=O)NCc2cccc3ccccc23)cc(Cl)c1OC | True |
| Nc1nc(Cl)nc2c1ncn2[C@@H]1O[C@@H](COP(=O)(O)OP(=O)(O)OP(=O)(O)O)[C@@H](O)[C@H]1O | False |
